target: CYP2C19 (Homo sapiens (Human), UniProt P33261); test: Cytochrome P450 activity inhibition, CYP2C19; format: in vitro ADME; settings: 10 μM, human liver microsomes, S-mephenytoin substrate
Sequence (P33261 whole entry): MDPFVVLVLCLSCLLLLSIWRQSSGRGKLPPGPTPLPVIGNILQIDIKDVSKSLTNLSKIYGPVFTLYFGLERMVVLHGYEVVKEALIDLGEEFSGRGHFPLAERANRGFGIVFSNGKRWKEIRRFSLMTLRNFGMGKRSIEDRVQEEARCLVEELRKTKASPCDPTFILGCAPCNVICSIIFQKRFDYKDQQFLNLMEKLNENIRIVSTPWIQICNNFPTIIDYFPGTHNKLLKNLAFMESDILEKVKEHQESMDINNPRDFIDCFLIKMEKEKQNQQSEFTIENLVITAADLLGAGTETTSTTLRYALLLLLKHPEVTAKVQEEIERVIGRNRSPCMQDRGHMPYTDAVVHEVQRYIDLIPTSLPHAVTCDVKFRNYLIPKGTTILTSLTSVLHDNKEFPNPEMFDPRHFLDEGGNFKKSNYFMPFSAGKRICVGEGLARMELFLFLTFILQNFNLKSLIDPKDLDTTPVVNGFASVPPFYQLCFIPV
Attribute: CYP inhibition (% of control) 2C19

Here are 3 compounds together with their reported answers.
>>> result("Cc1ccc(/C(=C(\\CCCO)c2ccccc2)c2ccc(C3CN(C(C)C)C3)cc2)cc1 [Compound 22e]")
"58.4 % of control"
>>> result("OCCC/C(=C(\\c1ccc(O)cc1)c1ccc(N2CCNCC2)cc1)c1ccccc1 [Compound 20j]")
"62 % of control"
>>> result("OCCC/C(=C(\\c1ccc(O)cc1)c1ccc(C2CN(C3CC3)C2)cc1)c1ccccc1 [Compound 22d]")
">100 % of control"

Find the recorded CYP inhibition (% of control) 2C19 belonging to OCCC/C(=C(\c1ccc(O)cc1)c1ccc(N2CCN(C3CCCC3)CC2)cc1)c1ccccc1 [Compound 22n] and report it.
83 % of control

Now the compound Cc1ccc(/C(=C(\CCCO)c2ccccc2)c2ccc(C3CCNCC3)cc2)cc1 [Compound 20k]
78.9 % of control

Now the compound CN1CCN(c2ccc(/C(=C(/CCCO)c3ccccc3)c3ccc([N+](=O)[O-])cc3)cc2)CC1 [Compound 18c]
80 % of control

Now the compound OCCC/C(=C(\c1ccc(O)cc1)c1ccc(OCCN2C[C@H]3C[C@H]3[C@H]2CO)cc1)c1ccccc1 [Compound 38d]
58.8 % of control

Now the compound Cc1ccc(/C(=C(\CCCO)c2ccccc2)c2ccc(N3CCN(C)CC3)cc2)cc1 [Compound 18f]
72.8 % of control

Now the compound OCCC/C(=C(\c1ccc(O)cc1)c1ccc(N2CCN(C3CCCCC3)CC2)cc1)c1ccccc1 [Compound 22p]
61.5 % of control

Now the compound OCCC/C(=C(/c1ccc(C2CCN(C3CC3)CC2)cc1)c1cccc(O)c1)c1ccccc1 [Compound 22r]
>100 % of control

Now the compound CC(C)N1CCN(c2ccc(C(=C(CCCO)c3ccccc3)c3ccc(O)cc3)cc2)CC1 [Compound 18a]
81.2 % of control

Now the compound OCCC/C(=C(\c1ccc(O)cc1)c1ccc(C2=CCN(C3CC3)CC2)cc1)c1ccccc1 [Compound 22j]
89.6 % of control

Now the compound Nc1ccc(/C(=C(\CCCO)c2ccccc2)c2ccc(C3CCN(C4CC4)CC3)cc2)cc1 [Compound 26d]
>100 % of control

Now the compound CN1CCC(c2ccc(/C(=C(/CCCO)c3ccccc3)c3cccc(O)c3)cc2)CC1 [Compound 22ac]
>100 % of control

Now the compound OCCC/C(=C(/c1ccc(C2=CCN(C3CC3)CC2)cc1)c1cccc(O)c1)c1ccccc1 [Compound 22l]
97 % of control

Now the compound CC(C)N1CCC(c2ccc(/C(=C(/CCCO)c3ccccc3)c3cccc(O)c3)cc2)CC1 [Compound 22m]
>100 % of control
